target: UniProt Q06187; assay: biochemical; settings: read-out: BTK inhibition (%), 0.75 uM BTK, […] probe 3l, 15 min preincubation
Class t: inhibition at 10 µM at least -10%. Class f: inhibition at 10 µM below -10%.

Prompt line: Check if inhibition at 10 µM >= -10% (inclusive). Item: Cc1ccccc1-c1cc(N2CCN(C)CC2)ncc1N(C)C(=O)C(C)(C)c1cc(C(F)(F)F)cc(C(F)(F)F)c1
Response line: t

Prompt line: Decide: inhibition at 10 µM of Cc1ccccc1N1CCN(CCc2nnc3n2CCCC3)CC1 >= -10%?
Response line: t

Prompt line: Please tell me: is the compound CC[C@@H](C)Nc1cc(C(=O)NC2C[C@H]3CC[C@@H](C2)N3c2ccc(C(=O)C3CC3)cn2)c(C)cc1C(N)=O (stereo partly drawn) at or over -10% in terms of inhibition at 10 µM?
Response line: t

Prompt line: inhibition at 10 µM >= -10% for COc1cc(Nc2nc3ccccc3nc2NS(=O)(=O)c2ccc(NC(=O)c3ccc(C)c(OC)c3)cc2)cc(OC)c1 ?
Response line: f

Prompt line: Would you say CNS(=O)(=O)Nc1nccc(Cc2c(C)c3ccc(Oc4ncccn4)cc3oc2=O)c1F shows inhibition at 10 µM at minimum -10%?
Response line: t

Prompt line: Threshold query (inhibition at 10 µM >= -10%) on COC(=O)Nc1nc2ccc(Sc3ccccc3)cc2[nH]1
Response line: t

Prompt line: Is it the case that O[C@@H](CNC[C@H](O)[C@H]1CCc2cc(F)ccc2O1)[C@@H]1CCc2cc(F)ccc2O1 has inhibition at 10 µM reaching or exceeding -10%?
Response line: f

Prompt line: In plain terms: is recorded inhibition at 10 µM at least -10% for NC(=O)c1cccc(-c2cc(Nc3ccc(OC(F)(F)F)cc3)ncn2)c1 ?
Response line: f

Prompt line: Is it the case that Cc1c(Cn2c(C)nc3c(C(=O)O)cc(N4CCOCC4)cc32)cccc1C(F)(F)F has inhibition at 10 µM reaching or exceeding -10%?
Response line: f

Prompt line: Decide: is the reported value of inhibition at 10 µM for C[C@H](Cc1cc2c(c(C(N)=O)c1)N(CCCO)CC2)NCCOc1ccccc1OCC(F)(F)F equal to or greater than -10%?
Response line: f

Prompt line: Kindly determine if inhibition at 10 µM recorded for C/C=C(/C)C(=O)O[C@H]1[C@@H](OC(=O)CC(C)C)c2c(ccc3ccc(=O)oc23)OC1(C)C is above or exactly -10%.
Response line: t

Prompt line: Reported inhibition at 10 µM reaches at least -10% for CCNC(=O)Nc1ccc(-c2nc3c(c(N4CCOC[C@@H]4C)n2)CCN(C2COC2)C3)cc1 ?
Response line: t

Prompt line: Please indicate if the recorded inhibition at 10 µM for C1CNCCNCCNCCN1 meets or exceeds -10%.
Response line: t

Prompt line: Does CC(C)(C)c1cc(NC(=O)Nc2ccc(Oc3ccnc4[nH]c(=O)cnc34)cc2F)n(-c2ccccc2)n1 have a reported inhibition at 10 µM of at least -10%?
Response line: t

Prompt line: Is the recorded value of inhibition at 10 µM equal to or greater than -10% for this compound? COc1ccc(Cn2c3ncnc4c(ncn4Cc4ccc(OC)cc4)c-3nc2=O)cc1
Response line: t

====

target: BTK (Homo sapiens, UniProt Q06187); assay: biochemical; conditions: read-out: BTK inhibition (%), 0.75 uM BTK, […] probe 3l, 15 min preincubation
Sequence (Q06187 402-655 limits assumed): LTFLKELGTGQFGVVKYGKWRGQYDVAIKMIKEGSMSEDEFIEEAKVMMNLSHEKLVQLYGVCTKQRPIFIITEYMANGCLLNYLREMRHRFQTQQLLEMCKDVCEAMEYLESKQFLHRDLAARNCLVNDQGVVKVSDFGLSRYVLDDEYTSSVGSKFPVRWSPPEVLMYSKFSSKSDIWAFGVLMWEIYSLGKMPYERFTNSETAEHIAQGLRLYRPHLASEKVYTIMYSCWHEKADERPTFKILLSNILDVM
Would you mind telling me the reported inhibition at 10 µM of each entry?

Prompt line: Record lookup: for BTK (Homo sapiens, UniProt Q06187), what inhibition at 10 µM belongs to CC(C)c1ccc2c(c1O)CC[C@H]1C3=C(CC[C@]21C)C(=O)OC3 ?
Response line: 0.8%

Prompt line: Give BTK (Homo sapiens, UniProt Q06187) inhibition at 10 µM for COc1ccc2[nH]cc(/C=C3\C(=O)Nc4ccc(NC(=O)CCN5CCCCC5)cc43)c2c1
Response line: 51.7%

Prompt line: Form entry - test system: BTK (Homo sapiens, UniProt Q06187); read-out: inhibition at 10 µM; compound: O=c1cc(-c2ccc(O)cc2)oc2c([C@@H]3OC[C@H](O)[C@H](O)[C@H]3O)c(O)c([C@@H]3O[C@H](CO)[C@@H](O)[C@H](O)[C@H]3O)c(O)c12
Response line: -13.9%

Prompt line: Hello, I am looking for reported inhibition at 10 µM with BTK (Homo sapiens, UniProt Q06187) for COc1cc(C)c(/C=C/C(C)=C/C=C/C(C)=C/C(=O)O)c(C)c1C . Could you help?
Response line: 10.9%

Prompt line: Write down the reported inhibition at 10 µM of O=Cc1ccccc1 , test system: BTK (Homo sapiens, UniProt Q06187).
Response line: -2.3%

Prompt line: Field: inhibition at 10 µM (BTK (Homo sapiens, UniProt Q06187)). Entry: COc1ccc(-c2ccc3ncc4c(c3c2)n(-c2ccc(N3CCNCC3)c(C(F)(F)F)c2)c(=O)n4C)cn1
Response line: 0.7%

====

molecular target: UniProtKB Q06187; experiment: biochemical; conditions: read-out: BTK inhibition (%), 0.75 uM BTK, […] probe 3l, 15 min preincubation
MEASURE_NAME: inhibition at 10 µM (%)
Express the result in % but write the number alone.

Prompt line: Notebook: pull reported inhibition at 10 µM for UniProtKB Q06187, entry CC(=O)Nc1cccc2c1c(Sc1ccc(Cl)cc1)c(C)n2CC(=O)O [PCM-0215238]
Response line: -9.3

Prompt line: Find the measured inhibition at 10 µM: item CNC(=O)c1ccc(N2C(=S)N(c3ccc(C#N)c(C(F)(F)F)c3)C(=O)C2(C)C)cc1F [PCM-0095003] , target or system UniProtKB Q06187.
Response line: -10.3

Prompt line: Report inhibition at 10 µM for NC(=O)CC[C@@H](N)C(=O)O [PCM-0095186] tested on UniProtKB Q06187.
Response line: 6

Prompt line: Please provide the recorded inhibition at 10 µM for Cc1ccc(S(=O)(=O)/C=C/C#N)cc1 [PCM-0065564] , tested on UniProtKB Q06187.
Response line: -12.4

Prompt line: Form entry - test system: UniProtKB Q06187; read-out: inhibition at 10 µM; compound: OCCc1ccc(O)c(O)c1 [PCM-0214956]
Response line: -2.3

Prompt line: // map COc1ccc2cc([C@H](C)C(=O)O)ccc2c1 [PCM-0000233] to recorded inhibition at 10 µM (system: UniProtKB Q06187)
Response line: -13.1

Prompt line: Notebook entry, UniProtKB Q06187 assay: inhibition at 10 µM of CC(C)=CCc1cc2c(cc1O)O[C@H](c1ccc(O)cc1)CC2=O [PCM-0216180] = ?
Response line: 54.1

Prompt line: UniProtKB Q06187 / inhibition at 10 µM / CCOCC(O)COc1ccc(NC(=O)CC[S+](C)C)cc1 (centres unmarked) [PCM-0095295] : value?
Response line: 0

Prompt line: Item O=C1NC(=O)/C(=C\c2ccc(-c3ccc(F)cc3)o2)S1 [PCM-0095359] with UniProtKB Q06187 - inhibition at 10 µM?
Response line: 11

Prompt line: Record lookup: for UniProtKB Q06187, what inhibition at 10 µM belongs to N#Cc1cc(-c2n[nH]c(-c3ccncc3)n2)ccn1 [PCM-0214916] ?
Response line: -18.7

Prompt line: Requested read-out inhibition at 10 µM, target or system UniProtKB Q06187, entry CC1(C)[C@@H]2CC[C@@]1(C)C(=O)C2 [PCM-0214819]
Response line: 1.6

Prompt line: Write down the reported inhibition at 10 µM of CC(=O)N1CCN(c2ccc(OC[C@@H]3CO[C@@](Cn4ccnc4)(c4ccc(Cl)cc4Cl)O3)cc2)CC1 [PCM-0065423] , test system: UniProtKB Q06187.
Response line: -29.8

Prompt line: Observed inhibition at 10 µM on UniProtKB Q06187 for O=C(Nc1cccc2c(=O)cc(-c3nn[nH]n3)oc12)c1ccc(OCCCCc2ccccc2)cc1 [PCM-0095155] , please.
Response line: 73.8

Prompt line: Look up inhibition at 10 µM with UniProtKB Q06187 for this compound: COC(=O)c1ccc(O)c(C(=O)OC)c1 [PCM-0215105]
Response line: -13.1

====

target: BTK (Homo sapiens); experiment: biochemical; conditions: read-out: BTK inhibition (%), 0.75 uM BTK, […] probe 3l, 15 min preincubation
MEASURE_NAME: inhibition at 10 µM (%)
Enter your answer as a number in %; do not include the unit.

Prompt line: Can you look up inhibition at 10 µM on BTK (Homo sapiens) for C[C@H]1O[C@@H](O[C@H]2CC[C@@]3(C)[C@@H](CC[C@]4(C)[C@@H]3C=CC3=C5CC(C)(C)CC[C@]5(CO)[C@@H](O)C[C@]34C)[C@]2(C)CO)[C@H](O[C@@H]2O[C@H](CO)[C@@H](O)[C@H](O)[C@H]2O)[C@@H](O[C@@H]2O[C@H](CO)[C@@H](O)[C@H](O)[C@H]2O)[C@H]1O ?
Response line: 25.5

Prompt line: Query the reported inhibition at 10 µM for BTK (Homo sapiens); item: OCCN(CCO)c1nc(N2CCCCC2)c2nc(N(CCO)CCO)nc(N3CCCCC3)c2n1
Response line: 10.9

Prompt line: inhibition at 10 µM of CN(C)CCC(c1ccc(Cl)cc1)c1ccccn1 (stereo not drawn) on BTK (Homo sapiens)?
Response line: 6.9
